I'd be grateful if you could share measured IC50 for these entries.
Target: SHP2 (Homo sapiens (Human), UniProt Q06124)
Sequence (Q06124 whole entry): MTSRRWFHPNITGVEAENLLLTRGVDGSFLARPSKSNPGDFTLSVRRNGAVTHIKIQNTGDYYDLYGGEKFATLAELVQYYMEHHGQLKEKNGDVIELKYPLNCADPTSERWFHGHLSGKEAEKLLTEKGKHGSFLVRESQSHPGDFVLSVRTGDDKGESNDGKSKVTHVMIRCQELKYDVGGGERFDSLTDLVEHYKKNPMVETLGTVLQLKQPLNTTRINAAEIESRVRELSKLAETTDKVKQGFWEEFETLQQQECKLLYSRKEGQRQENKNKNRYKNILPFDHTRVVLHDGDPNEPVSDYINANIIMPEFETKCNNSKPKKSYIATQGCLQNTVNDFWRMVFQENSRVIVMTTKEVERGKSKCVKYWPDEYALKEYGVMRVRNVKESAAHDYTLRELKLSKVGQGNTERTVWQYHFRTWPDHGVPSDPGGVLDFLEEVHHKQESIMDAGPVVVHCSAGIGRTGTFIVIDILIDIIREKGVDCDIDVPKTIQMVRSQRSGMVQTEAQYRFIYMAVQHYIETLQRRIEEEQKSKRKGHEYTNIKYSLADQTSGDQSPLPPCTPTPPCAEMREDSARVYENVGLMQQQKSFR
Test: SHP2 Allosteric Inhibition Assay (DiFMUP prompt fluorescence)
Conditions: 0.25 nM SHP2 activated with 0.5 μM peptide IRS1_pY1172(dPEG8)pY1222; substrate DiFMUP 100 μM; 25° C.

Enquiry: Quick check: IC50 of C[C@@H]1OCC2(CCN(c3cnc4c(N5CCCc6c5ccnc6-c5cnn(C)c5)n[nH]c4n3)CC2)[C@@H]1N [Compound 226] ?
Return: < 1000 nM

Enquiry: Quick check: IC50 of C[C@@H]1OCC2(CCN(c3cnc4c(N5CC[C@H](C)c6nc(-c7ccn[nH]7)ccc65)n[nH]c4n3)CC2)[C@@H]1N [Compound 430] ?
Return: < 1000 nM

Enquiry: Quick check: IC50 of C[C@@H]1OCC2(CCN(c3cnc4c(N5CCCc6sccc65)n[nH]c4n3)CC2)[C@@H]1N [Compound 394] ?
Return: < 1000 nM

Enquiry: Quick check: IC50 of C[C@@H]1OCC2(CCN(c3cnc4c(N5CCCc6nc(C7CCOC7)ccc65)n[nH]c4n3)CC2)[C@@H]1N (stereo partly shown) [Compound 309] ?
Return: < 1000 nM

* * *

Target: SHP2 (Homo sapiens (Human), UniProt Q06124)
Test: SHP2 Allosteric Inhibition Assay (DiFMUP prompt fluorescence)
Conditions: 0.25 nM SHP2 activated with 0.5 μM peptide IRS1_pY1172(dPEG8)pY1222; substrate DiFMUP 100 μM; 25° C.
measurement-label: IC50

Enquiry: SHP2 (Homo sapiens (Human), UniProt Q06124) / IC50 / COCCn1cc(-c2ccc3c(n2)CCCN3c2n[nH]c3nc(N4CCC5(CC4)CO[C@@H](C)[C@H]5N)cnc23)cn1 [Compound 333] : value?
Return: < 1 µM

Enquiry: SHP2 (Homo sapiens (Human), UniProt Q06124) / IC50 / C[C@@H]1OCC2(CCN(c3cnc4c(N5CCN(S(C)(=O)=O)c6ccccc65)n[nH]c4n3)CC2)[C@@H]1N [Compound 325] : value?
Return: < 1 µM

Enquiry: SHP2 (Homo sapiens (Human), UniProt Q06124) / IC50 / C/C(=N/O)c1ccc2c(n1)CCCN2c1n[nH]c2nc(N3CCC4(CC3)CO[C@@H](C)[C@H]4N)cnc12 [Compound 397] : value?
Return: < 1 µM

Enquiry: SHP2 (Homo sapiens (Human), UniProt Q06124) / IC50 / C[C@@H]1OCC2(CCN(c3cnc4c(N5CCN(C)c6cnncc65)n[nH]c4n3)CC2)[C@@H]1N [Compound 414] : value?
Return: 1 to 10 µM

* * *

Target: UniProtKB Q06124
Test: SHP2 Allosteric Inhibition Assay (DiFMUP prompt fluorescence)
Conditions: 0.25 nM SHP2 activated with 0.5 μM peptide IRS1_pY1172(dPEG8)pY1222; substrate DiFMUP 100 μM; 25° C.
pIC50: −log10 of the molar value. Where a name gives a salt, the structure may show the parent alone.
I'd be grateful if you could share measured pIC50 for these entries.

Enquiry: Quick check: pIC50 of c1ccc(C2CCCN(c3cnc4c(N5CCCc6ncccc65)n[nH]c4n3)C2)cc1 (stereo not shown) [Compound 152] ?
Return: ≤ 5.00

Enquiry: Quick check: pIC50 of C[C@@H]1OCC2(CCN(c3cnc4c(N5CC[C@H](C)c6nc(C(=O)NCCO)ccc65)n[nH]c4n3)CC2)[C@@H]1N [Compound 447] ?
Return: > 6.00

Enquiry: Quick check: pIC50 of CO/N=C/c1ccc2c(n1)[C@@H](C)CCN2c1n[nH]c2nc(N3CCC4(CC3)CO[C@@H](C)[C@H]4N)cnc12 [Compound 444, hydrochloride] ?
Return: > 6.00

Enquiry: Quick check: pIC50 of C[C@@H]1OCC2(CCN(c3cnc4c(N5CCCc6nc(C7=CCOC7)ccc65)n[nH]c4n3)CC2)[C@@H]1N [Compound 336] ?
Return: > 6.00

Enquiry: Quick check: pIC50 of C[C@@H]1OCC2(CCN(c3cnc4c(N5CCCc6nc(-c7cnn(C)c7)ccc65)n[nH]c4n3)CC2)[C@@H]1N [Compound 224] ?
Return: > 6.00

Enquiry: Quick check: pIC50 of C[C@@H]1OCC2(CCN(c3cnc4c(N5CCCc6c5ccnc6-c5cn[nH]c5)n[nH]c4n3)CC2)[C@@H]1N [Compound 289] ?
Return: > 6.00

Enquiry: Quick check: pIC50 of O=C1NC2(CCN(c3cnc4c(N5CCCc6ncccc65)n[nH]c4n3)CC2)CO1 [Compound 215] ?
Return: 5.00 to 6.00

* * *

I'd be grateful if you could share measured IC50 for these entries.
Target: SHP2 (Homo sapiens (Human))
Assay: SHP2 Allosteric Inhibition Assay (DiFMUP prompt fluorescence)
Conditions: 0.25 nM SHP2 activated with 0.5 μM peptide IRS1_pY1172(dPEG8)pY1222; substrate DiFMUP 100 μM; 25° C.

Enquiry: Quick check: IC50 of CNC(=O)c1nccc2c1CCCN2c1n[nH]c2nc(N3CCC4(CC3)CO[C@@H](C)[C@H]4N)cnc12 ?
Return: < 1 µM

Enquiry: Quick check: IC50 of C[C@@H]1OCC2(CCN(c3cnc4c(N5CCCc6c5cccc6S(C)(=O)=O)n[nH]c4n3)CC2)[C@@H]1N ?
Return: < 1 µM

Enquiry: Quick check: IC50 of CC1CCN(c2n[nH]c3nc(N4CCC5(CC4)CNC(=O)C5)cnc23)c2cccnc21 (stereo not drawn) ?
Return: 1 to 10 µM

Enquiry: Quick check: IC50 of C[C@@H]1OCC2(CCN(c3cnc4c(N5CCNc6nc(-c7cnn(C)c7)ccc65)n[nH]c4n3)CC2)[C@@H]1N ?
Return: < 1 µM

Enquiry: Quick check: IC50 of C[C@@H]1OCC2(CCN(c3cnc4c(N5CCC(=C(F)F)c6ccccc65)n[nH]c4n3)CC2)[C@@H]1N ?
Return: < 1 µM

Enquiry: Quick check: IC50 of CC(C)N1CCN(c2n[nH]c3nc(N4CCC5(CC4)CO[C@@H](C)[C@H]5N)cnc23)c2ccc(C#N)cc21 ?
Return: < 1 µM

Enquiry: Quick check: IC50 of c1ccc(CC2CCCN2c2cnc3c(N4CCCc5ncccc54)n[nH]c3n2)cc1 (stereo not drawn) ?
Return: ≥ 10 µM

Enquiry: Quick check: IC50 of C[C@@H]1OCC2(CCN(c3cnc4c(N5CCCc6c5cccc6N5CCCS5(=O)=O)n[nH]c4n3)CC2)[C@@H]1N ?
Return: < 1 µM

Enquiry: Quick check: IC50 of CNC(=O)N1CCN(c2n[nH]c3nc(N4CCC5(CC4)CO[C@@H](C)[C@H]5N)cnc23)c2ccccc21 ?
Return: < 1 µM

Enquiry: Quick check: IC50 of C[C@@H]1OCC2(CCN(c3cnc4c(N5CCCc6nc(-c7cn[nH]c7)ccc65)n[nH]c4n3)CC2)[C@@H]1N ?
Return: < 1 µM

Enquiry: Quick check: IC50 of c1ccc(C2CCCN2c2cnc3c(N4CCCc5ncccc54)n[nH]c3n2)cc1 (stereo not drawn) ?
Return: ≥ 10 µM

Enquiry: Quick check: IC50 of CCC1(C)CCN(c2cnc3c(N4CCCc5ncccc54)n[nH]c3n2)CC1 ?
Return: ≥ 10 µM

Enquiry: Quick check: IC50 of Cc1ccc2c(c1S(C)(=O)=O)CCCN2c1n[nH]c2nc(N3CCC4(CC3)CO[C@@H](C)[C@H]4N)cnc12 ?
Return: < 1 µM

Enquiry: Quick check: IC50 of C[C@@H]1C[C@H](CN)CCN1c1cnc2c(N3CCCc4ncccc43)n[nH]c2n1 (racemic) ?
Return: 1 to 10 µM

Enquiry: Quick check: IC50 of C[C@@H]1OCC2(CCN(c3cnc4c(N5CCCc6nc(-n7cncn7)ccc65)n[nH]c4n3)CC2)[C@@H]1N ?
Return: < 1 µM

* * *

Molecular target: SHP2 (Homo sapiens (Human))
Experiment: SHP2 Allosteric Inhibition Assay (DiFMUP prompt fluorescence)
Conditions: 0.25 nM SHP2 activated with 0.5 μM peptide IRS1_pY1172(dPEG8)pY1222; substrate DiFMUP 100 μM; 25° C.
Counter-ions that a name gives are not always drawn.
measurement-label: IC50

Enquiry: Quick check: IC50 of CC1(CN)CCN(c2cnc3c(N4CCc5cnccc54)n[nH]c3n2)CC1 ?
Return: 1000 to 10000 nM

Enquiry: Quick check: IC50 of COC(=O)n1nc(N2CCCc3ncccc32)c2ncc(N3CCC4(CC3)CO[C@@H](C)[C@H]4N)nc21 [Compound 253, hydrochloride] ?
Return: < 1000 nM

Enquiry: Quick check: IC50 of CC1(CN)CCN(c2cnc3c(N4CCc5cc(C#N)ccc54)n[nH]c3n2)CC1 ?
Return: < 1000 nM

Enquiry: Quick check: IC50 of c1cncc(COC2CCN(c3cnc4c(N5CCCc6ncccc65)n[nH]c4n3)CC2)c1 ?
Return: ≥ 10000 nM

Enquiry: Quick check: IC50 of C[C@@H]1OCC2(CCN(c3cnc4c(N5CCCc6nc(C(N)=O)ccc65)n[nH]c4n3)CC2)[C@@H]1N ?
Return: < 1000 nM

Enquiry: Quick check: IC50 of C[C@@H]1OCC2(CCN(c3cnc4c(N5CCCc6c5cccc6[S@](C)(=N)=O)n[nH]c4n3)CC2)[C@@H]1N ?
Return: < 1000 nM

Enquiry: Quick check: IC50 of C[C@@H]1CCN(c2n[nH]c3nc(N4CCC5(CC4)CO[C@@H](C)[C@H]5N)cnc23)c2ccc(C#N)c(F)c21 (single isomer, unassigned) ?
Return: < 1000 nM

# credit: patent US11591336B2
